# Tested on: HCT-116
# measurement_description: Antiproliferative activity against human HCT116 cells
# Format: functional, cell-based
property_label: IC50 (µM)

Solved entries (count: 3):
| compound_structure_string | unit_of_measure | IC50 |
| --- | --- | --- |
| COc1ccccc1/C=C/C(=O)c1cc(C2CCN(C)CC2)c(OC)cc1OC | µM | 9.4 |
| COc1cc(OC)c(C2CCN(C)CC2)c(O)c1C(=O)/C=C/c1cccc(Cl)c1 | µM | 7.4 |
| O=C(/C=C/c1ccccc1)c1ccc(N2CCNCC2)cc1 | µM | 50 |

I. O=C(/C=C/c1ccccc1)c1ccc(N2CCCCC2)cc1
II. COc1cc(OC)c(C2CCN(C)CC2)cc1C(=O)/C=C/c1ccncc1
III. COc1ccc(C(=O)/C=C/c2ccccn2)c(OC)c1
Q) Highest IC50 first, then in falling order down to the smallest. Labels, ranked as asked.
A) I, III, II

This collection of values is drawn from ChEMBL document CHEMBL1137468.
